Record form. Attribute: AC50. Fill in for each entry.
- assayed.system: human PAH with the R408W mutation (Homo sapiens, UniProt P00439, R408W)
- Construct: expressed in transfected cells
- assay.explanation: Cell Based Phenylalanine Flux Assay
- condition.context: A375 cells expressing human PAH R408W; 24 hrs compound incubation; 13C-Tyrosine by LC-MS; average where tested multiple times; read-out: AC50

Some solved cases for reference:
Cc1cccn2nc([C@@H]3c4nc[nH]c4CCN3C(=O)c3nnc(-c4cncnc4)o3)cc12 | 500 to 1000 nM
Cc1cccn2nc([C@@H]3c4nc[nH]c4CCN3C(=O)c3ocnc3C3CC3)cc12 | < 500 nM
Cn1ccc(-c2ncc(C(=O)N3CCc4[nH]cnc4[C@H]3c3cc4c(F)cccn4n3)o2)n1 | 1000 to 5000 nM
c1cc(C2CC2)c2cc([C@H]3c4nc[nH]c4CCN3c3cnccn3)nn2c1 | 1000 to 5000 nM
Fc1ccc(-c2nnc(N3CCc4[nH]cnc4[C@H]3c3cc4cccc(C(F)F)n4n3)o2)cc1 | < 500 nM

Kindly give each listed record's AC50.
1. FC(F)(F)c1cccn2nc([C@H]3c4nc[nH]c4CCN3c3cnccn3)cc12
2. Cc1cccn2nc([C@H]3c4nc[nH]c4CCN3c3nnc(-c4cccc(F)n4)o3)cc12
3. Cn1ccc(-c2nnc(C(=O)N3CCc4[nH]cnc4[C@@H]3c3cc4ccccn4n3)s2)n1

> 5000 nM
> 5000 nM
> 5000 nM

====

- assayed.system: human PAH with the R408W mutation (Homo sapiens, UniProt P00439, R408W)
- Construct: expressed in transfected cells
- assay.explanation: Cell Based Phenylalanine Flux Assay
- condition.context: A375 cells expressing human PAH R408W; 24 hrs compound incubation; 13C-Tyrosine by LC-MS; average where tested multiple times; read-out: AC50
Exercise: for every item that follows, state its recorded AC50.

Use the examples below as a reference point.
Cc1cccn2nc([C@@H]3c4nc[nH]c4CCN3c3nnc(-c4ccc(F)cc4)o3)cc12 [Example 1891] | < 500 nM
Cc1cccn2nc([C@H]3c4nc[nH]c4CCN3C(=O)c3nnc(-c4cnn(C)c4)s3)cc12 [Example 2046] | > 5000 nM
FC(F)(F)c1nnc(N2CCc3[nH]cnc3[C@H]2c2cc3ccccn3n2)o1 [Example 1807] | 500 to 1000 nM

Retrieve AC50 measured for Cc1cccnc1-c1nnc(N2CCc3[nH]cnc3[C@@H]2c2cc3c(C4CC4)cccn3n2)o1 [Example 2282] and print it. > 5000 nM

====

- assayed.system: human PAH with the R408W mutation (Homo sapiens, UniProt P00439, R408W)
- Construct: expressed in transfected cells
- assay.explanation: Cell Based Phenylalanine Flux Assay
- condition.context: A375 cells expressing human R408W PAH; 24 hrs compound incubation; 13C-Tyrosine by LC-MS; average where tested multiple times; read-out: AC50
measured.metric: AC50

Provide AC50 values for the following items, in order.
1. Cc1nc(C(=O)N2CCc3[nH]cnc3[C@H]2c2cc3c(C)cccn3n2)n(C)n1 [Example 916]
2. O=C(c1nnc(C2CCC2)o1)N1CCc2[nH]cnc2[C@H]1c1cc2ccccn2n1 [Example 1514]
3. Cc1cccn2nc([C@@H]3c4nc[nH]c4CCN3C(=O)c3oc(-c4cncn4C)nc3C(F)F)cc12 [Example 891]
4. O=C(c1nnc(-c2ccn(C(F)(F)F)n2)o1)N1CCc2[nH]cnc2[C@@H]1c1cc2cccc(C(F)F)n2n1 [Example 1545]
5. Cc1nnc(C(=O)N2CCc3[nH]cnc3[C@H]2c2cc3c(Cl)cccn3n2)o1 [Example 1106]
6. CC(C)(F)c1nnc(C(=O)N2CCc3[nH]cnc3[C@@H]2c2cc3c(Cl)cccn3n2)o1 [Example 1108]

1. < 0.5 µM
2. < 0.5 µM
3. < 0.5 µM
4. 1 to 5 µM
5. < 0.5 µM
6. > 5 µM

Hi! Can you tell me AC50 for each of these compounds?
1. Cc1cccn2nc([C@@H]3c4nc[nH]c4CCN3C(=O)c3cnco3)cc12 [Example 768]
2. Cc1cnn(C)c1-c1nnc(C(=O)N2CCc3[nH]cnc3[C@@H]2c2cc3c(F)cccn3n2)o1 [Example 929]
3. Cc1nn(C)cc1-c1nnc(C(=O)N2CCc3[nH]cnc3[C@@H]2c2cc3c(C(F)F)cccn3n2)o1 [Example 1467]
4. O=C(c1nnc(-c2cnn(C(F)F)c2)o1)N1CCc2[nH]cnc2[C@H]1c1cc2c(OC(F)(F)F)cccn2n1 [Example 1782]
5. Cc1cc(-c2nnc(C(=O)N3CCc4[nH]cnc4[C@@H]3c3cc4cccc(F)n4n3)o2)nn1C [Example 1564]

1: < 0.5 µM; 2: > 5 µM; 3: 1 to 5 µM; 4: 0.5 to 1 µM; 5: > 5 µM

For every item in the list below, what is its measured AC50?
1. O=C(c1nnc(-c2ncccc2F)o1)N1CCc2[nH]cnc2[C@@H]1c1cc2c(Cl)cccn2n1 [Example 1294]
2. FC(F)(F)c1cnc(N2CCc3[nH]cnc3[C@@H]2c2cc3c(C(F)(F)F)cccn3n2)nc1 [Example 1775]
3. Cc1ccc2cc([C@H]3c4nc[nH]c4CCN3C(=O)c3oc(C(C)(C)O)nc3C(F)F)nn2c1 [Example 805]
4. O=C(c1nnc(-c2ncccn2)o1)N1CCc2[nH]cnc2[C@H]1c1cc2c(F)cccn2n1 [Example 1313]

1. 1 to 5 µM
2. > 5 µM
3. 1 to 5 µM
4. 0.5 to 1 µM

====

- assayed.system: human PAH with the R408W mutation (Homo sapiens, UniProt P00439, R408W)
- Construct: expressed in transfected cells
- Sequence (P00439 1-452 R408W): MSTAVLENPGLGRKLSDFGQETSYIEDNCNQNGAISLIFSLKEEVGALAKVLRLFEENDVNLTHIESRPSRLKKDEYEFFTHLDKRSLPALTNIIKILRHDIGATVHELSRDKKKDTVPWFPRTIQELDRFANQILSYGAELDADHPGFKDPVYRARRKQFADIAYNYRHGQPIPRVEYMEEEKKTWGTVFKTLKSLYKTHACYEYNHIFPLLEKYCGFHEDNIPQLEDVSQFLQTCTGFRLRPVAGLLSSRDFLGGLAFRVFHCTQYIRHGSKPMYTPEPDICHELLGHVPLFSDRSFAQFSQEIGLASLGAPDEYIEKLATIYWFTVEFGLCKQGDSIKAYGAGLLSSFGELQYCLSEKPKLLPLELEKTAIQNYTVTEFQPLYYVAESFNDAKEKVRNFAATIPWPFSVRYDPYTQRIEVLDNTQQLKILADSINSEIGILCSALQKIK
- assay.explanation: Cell Based Phenylalanine Flux Assay
- condition.context: A375 cells expressing human R408W PAH; 24 hrs compound incubation; 13C-Tyrosine by LC-MS; average where tested multiple times; read-out: AC50
What AC50 was measured for each of the following?

Please review the entries below; each comes with its answer.
O=C(c1cnn2cc(-c3ccccn3)ccc12)N1CCc2[nH]cnc2[C@H]1c1cc2c(F)cccn2n1 | < 500 nM
Cn1cnc(-c2nnc(C(=O)N3CCc4[nH]cnc4[C@H]3c3cc4c(F)cccn4n3)o2)c1 | 500 to 1000 nM
Cc1cccc2cc([C@H]3c4nc[nH]c4CCN3C(=O)c3nnc(C(C)(C)C)o3)nn12 | 1000 to 5000 nM
COc1cccn2nc([C@@H]3c4nc[nH]c4CCN3C(=O)c3cc(C(F)F)nn3C)cc12 | < 500 nM
FC(F)(F)c1cnc(N2CCc3[nH]cnc3[C@H]2c2cc3c(C(F)(F)F)cccn3n2)nc1 | < 500 nM

Need AC50 for each of these molecules.
1. CC(C)c1nnc(C(=O)N2CCc3[nH]cnc3[C@H]2c2cc3c(F)cccn3n2)o1
2. Clc1cccn2nc([C@H]3c4nc[nH]c4CCN3c3nnc(C4CC4)o3)cc12
3. C[C@@H](O)c1nc(C(F)F)c(C(=O)N2CCc3[nH]cnc3[C@H]2c2cc3c(F)cccn3n2)o1

1. < 500 nM
2. > 5000 nM
3. < 500 nM

====

- assayed.system: human PAH with the R408W mutation (Homo sapiens, UniProt P00439, R408W)
- Construct: expressed in transfected cells
- assay.explanation: Cell Based Phenylalanine Flux Assay;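 note: after compound treatment, cells received sepiapterin plus isotope-labelled Phenylalanine for 4 hours, then labelled Tyrosine in the medium was quantified, 10-point 2-fold dilution series run in duplicate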
- condition.context: A375 cells expressing human R408W PAH; 24 hrs compound incubation; 13C-Tyrosine by LC-MS; average where tested multiple times; read-out: AC50
measured.metric: AC50

O=C(c1ocnc1C(F)(F)F)N1CCc2[nH]cnc2[C@@H]1c1cc2ccccn2n1 [Example 611] | 1000 to 5000 nM
O=C(c1oc(C2(O)CC2)nc1C(F)F)N1CCc2[nH]cnc2[C@H]1c1cc2c(C(F)(F)F)cccn2n1 [Example 1222] | < 500 nM
Cn1nc(C(F)F)cc1C(=O)N1CCc2[nH]cnc2[C@H]1c1cc2c(C(F)(F)F)cccn2n1 [Example 1370] | < 500 nM
Cn1nc(Cl)cc1C(=O)N1CCc2[nH]cnc2[C@H]1c1cc2ccccn2n1 [Example 680] | < 500 nM
O=C(c1nnc(-c2cnn(C(F)F)c2)o1)N1CCc2[nH]cnc2[C@H]1c1cc2c(C(F)(F)F)cccn2n1 [Example 906] | < 500 nM
O=C(c1nnc(-c2cccnc2)o1)N1CCc2[nH]cnc2[C@@H]1c1cc2cccc(F)n2n1 [Example 1523] | > 5000 nM
O=C(c1nnc(C2CC2)o1)N1CCc2[nH]cnc2[C@H]1c1cc2c(F)cccn2n1 [Example 946] | < 500 nM
O=C(c1nnc(-c2ccc(F)c(F)c2)o1)N1CCc2[nH]cnc2[C@H]1c1cc2ccccn2n1 [Example 648] | < 500 nM
O=C(c1ocnc1C(F)(F)F)N1CCc2[nH]cnc2[C@@H]1c1cc2c(F)cccn2n1 [Example 773] | 500 to 1000 nM
Cc1nn(C)cc1-c1nnc(C(=O)N2CCc3[nH]cnc3[C@@H]2c2cc3c(F)cccn3n2)o1 [Example 847] | > 5000 nM

Hey, can you go through the list below and give me AC50 for every item?
1. O=C(c1nnc(-c2ccc(F)c(F)c2)o1)N1CCc2[nH]cnc2[C@@H]1c1cc2ccccn2n1 [Example 649]
2. Cc1ncoc1C(=O)N1CCc2[nH]cnc2[C@@H]1c1cc2c(F)cccn2n1 [Example 775]
3. Cc1ccc(-c2nnc(C(=O)N3CCc4[nH]cnc4[C@H]3c3cc4c(F)cccn4n3)o2)nc1 [Example 877]

> 5000 nM
> 5000 nM
< 500 nM

Required: AC50, one value per compound below.
1. O=C(c1nnc(-c2ccn(C(F)(F)F)n2)o1)N1CCc2[nH]cnc2[C@H]1c1cc2c(OC(F)(F)F)cccn2n1 [Example 1706]
2. CC(C)(O)c1nc(C(F)(F)F)c(C(=O)N2CCc3[nH]cnc3[C@@H]2c2cc3cccc(Cl)n3n2)o1 [Example 1193]

< 500 nM
1000 to 5000 nM
